Just for reference, patent US11673889B2 is where these values come from.

- ASSAYED_TARGET: ENPP-1, MDA-MB-231 cells (Homo sapiens, UniProt P22413)
- Sequence (P22413 1-925): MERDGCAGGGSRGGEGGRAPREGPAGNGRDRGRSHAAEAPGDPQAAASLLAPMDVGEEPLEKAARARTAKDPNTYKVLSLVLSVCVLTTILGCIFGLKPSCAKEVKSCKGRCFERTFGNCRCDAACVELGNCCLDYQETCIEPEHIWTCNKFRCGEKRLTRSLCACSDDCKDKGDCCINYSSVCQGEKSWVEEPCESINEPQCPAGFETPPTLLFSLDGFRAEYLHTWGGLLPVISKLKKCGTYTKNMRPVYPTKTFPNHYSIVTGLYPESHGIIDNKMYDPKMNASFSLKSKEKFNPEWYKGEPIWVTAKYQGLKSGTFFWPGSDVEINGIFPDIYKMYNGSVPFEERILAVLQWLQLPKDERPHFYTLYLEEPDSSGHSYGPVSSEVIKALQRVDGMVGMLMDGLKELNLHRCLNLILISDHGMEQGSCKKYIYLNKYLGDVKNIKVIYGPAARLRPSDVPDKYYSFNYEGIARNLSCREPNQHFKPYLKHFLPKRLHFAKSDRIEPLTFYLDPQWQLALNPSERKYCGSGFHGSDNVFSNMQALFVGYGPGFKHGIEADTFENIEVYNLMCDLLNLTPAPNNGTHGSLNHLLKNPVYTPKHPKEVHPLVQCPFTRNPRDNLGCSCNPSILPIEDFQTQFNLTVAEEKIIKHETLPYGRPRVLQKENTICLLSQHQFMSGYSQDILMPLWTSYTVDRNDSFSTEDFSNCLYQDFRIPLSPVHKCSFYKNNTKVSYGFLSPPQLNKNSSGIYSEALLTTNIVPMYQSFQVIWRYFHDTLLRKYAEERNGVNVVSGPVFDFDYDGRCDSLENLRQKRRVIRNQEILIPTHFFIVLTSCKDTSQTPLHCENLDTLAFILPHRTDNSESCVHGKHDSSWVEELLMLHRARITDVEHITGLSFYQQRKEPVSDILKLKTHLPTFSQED
Quick rule for you: IC50 under 600 nM gets Yes, anything else gets No.

Request: I wonder whether COc1ccc2c(ncc3ncn(Cc4ccc(S(N)(=O)=O)cn4)c32)n1 [Compound 40] has IC50 below 600 nM. Can you tell?
Result: Yes

Request: Param item: COc1ccc2c(ncc3nc(C(F)(F)F)n(Cc4ccc(S(N)(=O)=O)cc4)c32)n1 [Compound 47]
Result: No

Request: Same thing, different compound: COc1ccc2c(ncc3nc(C4CCOCC4)n(Cc4ccc(S(N)(=O)=O)cn4)c32)n1 [Compound 75]
Result: Yes

Request: Also check COc1cc2ncc3ncn(Cc4ccc(S(N)(=O)=O)cn4)c3c2cc1OC [Compound 12]
Result: Yes

Request: Same read-out for COc1ccc2ncc3ncn(Cc4ccc(S(N)(=O)=O)cc4)c3c2c1 [Compound 36] ?
Result: No

Request: What do you get for COc1ccc2c(ncc3ncn(Cc4ccc(S(N)(=O)=O)cc4F)c32)n1 [Compound 62] ?
Result: Yes

Request: Similarly, COc1ccc2c(ncc3nc(C)n(Cc4cc(F)c(P(=O)(O)O)cc4F)c32)n1 [Compound 125] ?
Result: Yes

Request: Would you kindly repeat that for COc1ccc2c(ncc3[nH]c(=O)n(Cc4ccc(S(N)(=O)=O)cc4F)c32)n1 [Compound 102] ?
Result: Yes

Request: Here is the next compound: COc1ccc2c(ncc3ncn(Cc4ccc(S(N)(=O)=O)nc4)c32)n1 [Compound 41]
Result: Yes

Request: # repeat for COc1ccc2c(ncc3ncn(Cc4ccc(NS(N)(=O)=O)cc4)c32)n1 [Compound 46]
Result: No

Request: How about COc1ccc2c(ncc3c2n(Cc2c(F)cc(S(N)(=O)=O)cc2F)c(=O)n3CCO)n1 [Compound 115] ?
Result: Yes

Request: Let us now turn to COCc1nc2cnc3nc(OC)ccc3c2n1Cc1ccc(S(N)(=O)=O)c(F)c1 [Compound 79]
Result: No
